Provenance of the data: paper PMC11187062

experimental.target: T1, human UHRF1 PHD finger (residues 299-366) (human, UniProt Q96T88 299-366)
T1 construct: UHRF1 (ubiquitin-like PHD and RING finger domain-containing protein 1), human, PHD finger, residues 299-366; also called hPHD; hUHRF1 PHD finger; source: E. coli, expressed as a GST-fusion protein, purified (glutathione Sepharose 4B, HiTrap Q, Superdex 75)
T1 sequence (looked up): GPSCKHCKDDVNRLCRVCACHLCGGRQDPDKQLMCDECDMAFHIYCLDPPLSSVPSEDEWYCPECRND
measurement.notes: ITC; Microcal PEAQ-ITC, 293 K, 10 mM HEPES pH 7.5, 150 mM NaCl, 0.25 mM TCEP; one-site model; n = 3
measurement.parameters: both partners purified
quantity.name: Kd (nM)
Numeric only. Scale: nM

| binder | Kd / nM |
| --- | --- |
| SRRGVRTLLSVQREKAARARYMLLGGVRTHERRPTNKE (peptide, UniProt Q6W0C5 81-118, looked up, source: E. coli BL21 (DE3), purified (Ni Sepharose, His-Ub removed by YUH1, HiTrap SP, Superdex 75)) [hDPPA3 residues 81-118, M96A/L99A] | 550 |

Below: the item to evaluate.
Lookup result for SRRGVRTLLSVQREKMAALRYALLGGVRTHERRPTNKE (peptide, UniProt Q6W0C5 81-118, looked up, source: E. coli BL21 (DE3), purified (Ni Sepharose, His-Ub removed by YUH1, HiTrap SP, Superdex 75)) [hDPPA3 residues 81-118, R98A/M102A] ; measured Kd: 352
